# experimental-target: 5-HT transporter (Rattus norvegicus, UniProt P31652)
# Construct: from tissue; host or cells: rat brain synaptosomes (marrow/medulla and pons), P2 fraction
# Sequence (P31652 whole entry): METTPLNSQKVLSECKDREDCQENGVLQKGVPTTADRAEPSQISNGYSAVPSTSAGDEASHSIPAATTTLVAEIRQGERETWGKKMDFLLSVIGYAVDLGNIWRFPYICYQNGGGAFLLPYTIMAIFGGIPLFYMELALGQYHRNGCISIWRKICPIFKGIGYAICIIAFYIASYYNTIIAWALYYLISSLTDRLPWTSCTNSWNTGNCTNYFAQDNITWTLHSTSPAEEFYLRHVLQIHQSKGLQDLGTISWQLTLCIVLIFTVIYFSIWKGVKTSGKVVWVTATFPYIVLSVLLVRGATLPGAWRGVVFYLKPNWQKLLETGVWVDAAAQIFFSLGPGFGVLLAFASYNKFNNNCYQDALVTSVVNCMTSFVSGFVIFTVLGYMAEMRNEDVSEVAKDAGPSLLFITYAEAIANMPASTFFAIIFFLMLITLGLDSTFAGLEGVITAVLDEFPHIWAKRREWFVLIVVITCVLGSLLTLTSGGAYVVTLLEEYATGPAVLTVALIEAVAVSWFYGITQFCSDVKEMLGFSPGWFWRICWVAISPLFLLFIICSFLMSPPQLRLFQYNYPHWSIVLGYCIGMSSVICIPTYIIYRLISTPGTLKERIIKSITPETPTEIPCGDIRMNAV
# experiment-summary: Inhibition of 5-HT uptake in synaptosomes
# Type: biochemical
# conditions-used: read-out: Uptake_5-HT, rat, 1 μM, % inhibition
Classification field: enter 1 for inhibition at 1 µM values not below 40%, -1 for values below it.

compound: CCOC(=O)NC(=S)N1CCC2(CC1)NC(Cc1ccccc1)C(=O)N2Cc1ccccc1F (centres unmarked)
assigned-category: -1
--
compound: CCOC(=O)CN1C(=O)C(Cc2ccccc2)NC12CCN(C(=S)NC(=O)OCC)CC2 (centres unmarked)
assigned-category: 1
--
compound: CCOC(=O)CN1C(=O)C(Cc2ccccc2)NC12CCN(C(=O)NCc1ccc(Cl)c(Cl)c1)CC2 (centres unmarked)
assigned-category: 1
--
compound: O=C(NC1CCCCC1)N1CCC2(CC1)NC(Cc1ccccc1)C(=O)N2Cc1ccccc1F (centres unmarked)
assigned-category: 1
--
compound: CCCCS(=O)(=O)N1CCC2(CC1)NCC(=O)N2Cc1ccc(C(=O)OC)cc1
assigned-category: 1
--
compound: CCOC(=O)NC(=S)N1CCC2(CC1)NC(CCSC)C(=O)N2Cc1ccccc1C#N (centres unmarked)
assigned-category: -1
--
compound: CSCCC1NC2(CCN(C(=S)Nc3ccccc3C)CC2)N(Cc2ccc3ccccc3c2)C1=O (centres unmarked)
assigned-category: 1
--
compound: CSCCC1NC2(CCN(C(=O)NCCc3ccccc3)CC2)N(Cc2ccc(F)cc2)C1=O (centres unmarked)
assigned-category: -1

----------
# System: batrachotoxin (BTX) binding site of the sodium channel
# experiment-summary: Affinity to the batrachotoxin (BTX) binding site of the sodium channel
# conditions-used: rat cerebrocortex synaptosomes, [3H]-batrachotoxinin A20 α-benzoate 10 nM; test concentration not given

molecule: CSCCC1NC2(CCN(C(=S)Nc3ccccc3C)CC2)N(Cc2ccc3ccccc3c2)C1=O (stereo not shown) [Example 151]
BTX Inhibition: 84
--
molecule: CSCCC1NC2(CCN(S(=O)(=O)c3ccc(C)cc3)CC2)N(Cc2ccc(F)cc2)C1=O (stereo not shown) [Example 44]
BTX Inhibition: 42
--
molecule: CCOC(=O)CN1C(=O)C(Cc2ccccc2)NC12CCN(S(=O)(=O)c1c(C)cc(C)cc1C)CC2 (stereo not shown) [Example 72]
BTX Inhibition: 75
--
molecule: CCOC(=O)CC(C)NC(=S)N1CCC2(CC1)NC(Cc1ccccc1)C(=O)N2C (stereo not shown) [Example 131]
BTX Inhibition: 42

----------
# Tested on: batrachotoxin (BTX) binding site of the sodium channel
# experiment-summary: Affinity to the batrachotoxin (BTX) binding site of the sodium channel
# conditions-used: rat cerebrocortex synaptosomes, [3H]-batrachotoxinin A20 α-benzoate 10 nM; test concentration not given
endpoint-name: BTX Inhibition

compound: CCCCN1C(=O)C(Cc2ccccc2)NC12CCN(S(=O)(=O)c1ccccc1C(F)(F)F)CC2 (centres unmarked)
endpoint-name: BTX Inhibition
number: 38
--
compound: CCOC(=O)CN1C(=O)C(Cc2ccccc2)NC12CCN(S(=O)(=O)c1ccc(OC)cc1)CC2 (centres unmarked)
endpoint-name: BTX Inhibition
number: 32
--
compound: COC(=O)c1ccc(CN2C(=O)CNC23CCN(S(=O)(=O)c2c(C)cc(C)cc2C)CC3)cc1
endpoint-name: BTX Inhibition
number: 59
--
compound: CC(C)C1NC2(CCN(C(=S)NCc3ccccc3)CC2)N(Cc2ccccc2)C1=O (centres unmarked)
endpoint-name: BTX Inhibition
number: 44
--
compound: CC(C)CC1NC2(CCN(C(=S)Nc3ccc(F)cc3)CC2)NC1=O (centres unmarked)
endpoint-name: BTX Inhibition
number: 30
--
compound: CC(C)C1NC2(CCN(S(=O)(=O)c3ccc(F)c(Cl)c3)CC2)N(CCOc2ccccc2)C1=O (centres unmarked)
endpoint-name: BTX Inhibition
number: 41
--
compound: COCCNC(=S)N1CCC2(CC1)NC(CCSC)C(=O)N2Cc1ccc2ccccc2c1 (centres unmarked)
endpoint-name: BTX Inhibition
number: 47
--
compound: O=C1C(Cc2ccccc2)NC2(CCN(S(=O)(=O)c3cc(Cl)sc3Cl)CC2)N1Cc1ccccc1 (centres unmarked)
endpoint-name: BTX Inhibition
number: 54

----------
# experimental-target: 5-HT transporter (Rattus norvegicus)
# Construct: from tissue; host or cells: rat brain synaptosomes (marrow/medulla and pons), P2 fraction
# experiment-summary: Inhibition of 5-HT uptake in synaptosomes
# Format: biochemical
# conditions-used: rat, 1 μM

compound: CSCCC1NC2(CCN(C(=O)Nc3ccc(OC(F)(F)F)cc3)CC2)N(Cc2ccc(F)cc2)C1=O (stereo not drawn)
Uptake_5-HT, rat, 1 μM, % inhibition (%): 39
//
compound: C=CCN1C(=O)C(C(C)C)NC12CCN(C(=S)Nc1c(F)c(F)c(F)c(F)c1F)CC2 (stereo not drawn)
Uptake_5-HT, rat, 1 μM, % inhibition (%): 55
//
compound: Cc1cc(C)c(S(=O)(=O)N2CCC3(CC2)NC(C(C)C)C(=O)N3Cc2ccccc2)c(C)c1 (stereo not drawn)
Uptake_5-HT, rat, 1 μM, % inhibition (%): 61
//
compound: CN1C(=O)C(Cc2ccccc2)NC12CCN(S(=O)(=O)c1cccc(Cl)c1)CC2 (stereo not drawn)
Uptake_5-HT, rat, 1 μM, % inhibition (%): 57
//
compound: CCCCN1C(=O)C(C(C)C)NC12CCN(C(=S)Nc1cc(Cl)ccc1Cl)CC2 (stereo not drawn)
Uptake_5-HT, rat, 1 μM, % inhibition (%): 33
//
compound: CCCCN1C(=O)C(CCSC)NC12CCN(C(=O)Nc1ccc(OCC)cc1)CC2 (stereo not drawn)
Uptake_5-HT, rat, 1 μM, % inhibition (%): 47
//
compound: CC(C)CC1NC2(CCN(C(=S)Nc3ccc(F)cc3)CC2)NC1=O (stereo not drawn)
Uptake_5-HT, rat, 1 μM, % inhibition (%): 31
//
compound: CSCCC1NC2(CCN(S(=O)(=O)c3ccc(C(C)=O)cc3)CC2)N(Cc2cccc(C#N)c2)C1=O (stereo not drawn)
Uptake_5-HT, rat, 1 μM, % inhibition (%): 35
//
compound: CSCCC1NC2(CCN(S(=O)(=O)c3ccc(C)cc3)CC2)N(Cc2ccc(F)cc2)C1=O (stereo not drawn)
Uptake_5-HT, rat, 1 μM, % inhibition (%): 42
//
compound: CCOC(=O)CN1C(=O)C(Cc2ccccc2)NC12CCN(S(=O)(=O)c1cc([N+](=O)[O-])ccc1C)CC2 (stereo not drawn)
Uptake_5-HT, rat, 1 μM, % inhibition (%): 90
//
compound: O=C1C(Cc2ccccc2)NC2(CCN(S(=O)(=O)c3ccccc3F)CC2)N1Cc1ccccc1 (stereo not drawn)
Uptake_5-HT, rat, 1 μM, % inhibition (%): 73
//
compound: CCCCN1C(=O)C(CCSC)NC12CCN(C(=O)Nc1cc(OC)c(OC)c(OC)c1)CC2 (stereo not drawn)
Uptake_5-HT, rat, 1 μM, % inhibition (%): 32

----------
# Test system: batrachotoxin (BTX) binding site of the sodium channel
# experiment-summary: Affinity to the batrachotoxin (BTX) binding site of the sodium channel
# conditions-used: rat cerebrocortex synaptosomes, [3H]-batrachotoxinin A20 α-benzoate 10 nM; test concentration not given
Classification field: enter label 1 for BTX Inhibition values not below 50, label 0 for values below it.

molecule: CSCCC1NC2(CCN(C(=O)NCc3ccc(Cl)c(Cl)c3)CC2)N(Cc2ccc(F)cc2)C1=O (centres unmarked) [Example 228]
assigned-category: label 1
//
molecule: CCCCN1C(=O)C(C(C)C)NC12CCN(S(=O)(=O)c1ccc(F)cc1F)CC2 (centres unmarked) [Example 19]
assigned-category: label 0
//
molecule: CSCCC1NC2(CCN(C(=S)Nc3cccc(C#N)c3)CC2)N(Cc2ccc(F)cc2)C1=O (centres unmarked) [Example 192]
assigned-category: label 0
//
molecule: CCCCN1C(=O)C(CCSC)NC12CCN(C(=O)NCc1ccc(Cl)c(Cl)c1)CC2 (centres unmarked) [Example 219]
assigned-category: label 1
//
molecule: CC(C)CC1NC2(CCN(C(=O)Nc3cc(F)ccc3F)CC2)N(Cc2ccccc2C#N)C1=O (centres unmarked) [Example 218]
assigned-category: label 0
//
molecule: COc1ccccc1NC(=S)N1CCC2(CC1)NC(CCSC)C(=O)N2Cc1ccccc1C#N (centres unmarked) [Example 183]
assigned-category: label 0
//
molecule: COc1ccc(S(=O)(=O)N2CCC3(CC2)NC(Cc2ccccc2)C(=O)N3Cc2ccccc2)cc1OC (centres unmarked) [Example 29]
assigned-category: label 0
//
molecule: CSCCC1NC2(CCN(C(=S)Nc3ccccc3C)CC2)N(Cc2ccc(F)cc2)C1=O (centres unmarked) [Example 186]
assigned-category: label 1
//
molecule: CCOC(=O)CN1C(=O)C(Cc2ccccc2)NC12CCN(S(=O)(=O)c1ccccc1C(=O)OC)CC2 (centres unmarked) [Example 80]
assigned-category: label 0
//
molecule: CCCCN1C(=O)C(C(C)C)NC12CCN(C(=S)Nc1ccccc1F)CC2 (centres unmarked) [Example 122]
assigned-category: label 0
//
molecule: CSCCC1NC2(CCN(S(=O)(=O)c3ccc(F)cc3F)CC2)N(Cc2cc(C)cc(C)c2)C1=O (centres unmarked) [Example 42]
assigned-category: label 1
//
molecule: CCOC(=O)CN1C(=O)C(Cc2ccccc2)NC12CCN(S(=O)(=O)c1ccc(F)c(Cl)c1)CC2 (centres unmarked) [Example 69]
assigned-category: label 1
//
molecule: CSCCC1NC2(CCN(C(=O)Nc3ccc(Cl)c(C(F)(F)F)c3)CC2)N(Cc2ccccc2)C1=O (centres unmarked) [Example 211]
assigned-category: label 1
//
molecule: CC(C)C1NC2(CCN(C(=S)Nc3cc(Cl)ccc3Cl)CC2)N(Cc2ccccc2)C1=O (centres unmarked) [Example 136]
assigned-category: label 1
//
molecule: CCCCN1C(=O)C(CCSC)NC12CCN(C(=S)NCc1ccccc1)CC2 (centres unmarked) [Example 160]
assigned-category: label 1
//
molecule: CCOC(=O)NC(=S)N1CCC2(CC1)NC(Cc1ccccc1)C(=O)N2Cc1ccccc1F (centres unmarked) [Example 174]
assigned-category: label 0
//
molecule: C=CCN1C(=O)C(CCSC)NC12CCN(S(=O)(=O)c1c(C)cc(OC)c(C)c1C)CC2 (centres unmarked) [Example 79]
assigned-category: label 1
//
molecule: COc1cc(C)c(S(=O)(=O)N2CCC3(CC2)NC(=O)C(Cc2ccccc2)N3)c(C)c1C (centres unmarked) [Example 4]
assigned-category: label 1
//
molecule: CCOc1ccc(NC(=O)N2CCC3(CC2)NC(CCSC)C(=O)N3Cc2ccc3ccccc3c2)cc1 (centres unmarked) [Example 231]
assigned-category: label 1
//
molecule: CCOC(=O)CN1C(=O)C(Cc2ccccc2)NC12CCN(C(=S)Nc1ccccc1C(=O)OC)CC2 (centres unmarked) [Example 145]
assigned-category: label 1
//
molecule: CCOC(=O)CN1C(=O)C(Cc2ccccc2)NC12CCN(S(=O)(=O)c1ccccc1)CC2 (centres unmarked) [Example 66]
assigned-category: label 0
//
molecule: CSCCC1NC2(CCN(C(=O)NCCc3ccccc3)CC2)N(Cc2ccc(F)cc2)C1=O (centres unmarked) [Example 239]
assigned-category: label 1
//
molecule: COc1ccccc1NC(=S)N1CCC2(CC1)NC(CCSC)C(=O)N2Cc1cccc(C#N)c1 (centres unmarked) [Example 184]
assigned-category: label 0
//
molecule: CSCCC1NC2(CCN(C(=S)NC(C)c3ccccc3)CC2)N(Cc2cccc(C#N)c2)C1=O (centres unmarked) [Example 181]
assigned-category: label 1
//
molecule: CCCCN1C(=O)C(CCSC)NC12CCN(C(=S)NCC1CCCCC1)CC2 (centres unmarked) [Example 132]
assigned-category: label 1
//
molecule: Cc1ccc(S(=O)(=O)N2CCC3(CC2)NC(Cc2ccccc2)C(=O)N3Cc2ccccc2)cc1 (centres unmarked) [Example 45]
assigned-category: label 0
//
molecule: O=C(NC1CCCCC1)N1CCC2(CC1)NC(Cc1ccccc1)C(=O)N2Cc1ccccc1F (centres unmarked) [Example 238]
assigned-category: label 1
